Tested on: corn (Zea mays)
Test: Test B pre-/postemergence
Type: in vivo
Details: Rate 250 g/ha, Preemergence
Experimental: […] At the same time, these crop and weed species were also treated with postemergence applications of test chemicals formulated in the same manner. […] Treated plants and controls were maintained in a greenhouse for twelve to sixteen days, after which all species were compared to controls and visually evaluated. […]
RECORDED_METRIC: Plant response rating, Corn
One number for each entry.

{"columns": ["CPD_SMILES", "RECORDED_METRIC", "RESULT_NUMBER"],
 "data": [
  ["Cc1cnc(-c2ccc(C(F)(F)F)cc2)nc1C(=O)c1cccc(OC(F)(F)F)c1", "Plant response rating, Corn", 1],
  ["Cc1cnc(-n2ccc(C(F)(F)C(F)(F)F)n2)nc1C(=O)c1cccc(C(F)(F)F)c1", "Plant response rating, Corn", 1]
]}

Inquiry: Given the compound "Cc1cnc(-c2ccc(C(F)(F)F)cc2)nc1Cc1cccc(OC(F)(F)F)c1" , write its reported Plant response rating, Corn.
Reply text: 2
